Item-by-item account of IC50
# Target or system: Replicase polyprotein 1ab (Severe acute respiratory syndrome coronavirus 2, UniProt P0DTD1)
# Protocol summary: Non-covalent inhibition of SARS-CoV-2 main protease incubated for 50 mins followed by substrate addition by FRET assay

Molecule smiles: CN1C(=O)/C(=C2/C(=O)N(CCN)c3ccccc32)c2cc(Br)ccc21.Cl
IC50 [nM]: 1490
--
Molecule smiles: CN1C(=O)/C(=C2/C(=O)N(CCCN)c3ccc(Br)cc32)c2ccccc21.Cl
IC50 [nM]: 1340

====

# Target or system: UniProtKB P0DTD1
# Protocol summary: Inhibition of recombinant SARS-CoV-2 main protease expressed in Escherichia coli BL21 DE3 expression cells using MCA-AVLQSGFR-Lys(Dnp)-Lys-NH2 as substrate at 10 uM incubated for 10 to 15 mins followed by substrate addition by FRET assay relative to control
# Test parameters: time 10-15 min
Mark Criterion not met for inhibition values under 70%, and Criterion met for everything at or above.

Compound: O=C(O)CCCCCCCN1C(=O)/C(=C2/C(=O)Nc3ccccc32)c2cc(O)ccc21
Classification: Criterion not met
//
Compound: O=C(O)CCCCCCCCCCCN1C(=O)/C(=C2/C(=O)Nc3ccccc32)c2ccccc21
Classification: Criterion met
//
Compound: CCOC(=O)CCCCCCCCCN1C(=O)/C(=C2/C(=O)Nc3ccccc32)c2cc(Br)ccc21
Classification: Criterion not met
//
Compound: CN1C(=O)/C(=C2/C(=O)Nc3ccccc32)c2cc(Cl)ccc21
Classification: Criterion not met
//
Compound: O=C(O)CCCCCN1C(=O)/C(=C2/C(=O)Nc3ccccc32)c2ccccc21
Classification: Criterion not met
//
Compound: CCOC(=O)CCCCCCCN1C(=O)/C(=C2/C(=O)Nc3ccccc32)c2cc(Br)ccc21
Classification: Criterion not met
//
Compound: CN1C(=O)/C(=C2/C(=O)Nc3ccccc32)c2cc(O)ccc21
Classification: Criterion met
//
Compound: CN1C(=O)/C(=C2/C(=O)Nc3ccccc32)c2ccccc21
Classification: Criterion not met
//
Compound: COc1ccc2c(c1)C1(CC=CCC13C(=O)Nc1ccccc13)C(=O)N2C (stereo unspecified)
Classification: Criterion not met
//
Compound: CN1C(=O)/C(=C2/C(=O)N(CCCN)c3ccc(Br)cc32)c2ccccc21.Cl
Classification: Criterion met
//
Compound: O=C(O)CCCCCCCN1C(=O)/C(=C2/C(=O)Nc3ccccc32)c2cc(Br)ccc21
Classification: Criterion met
//
Compound: CN1C(=O)C2(CC=CCC23C(=O)Nc2ccc(Br)cc23)c2ccccc21 (stereo unspecified)
Classification: Criterion not met
//
Compound: CN1C(=O)/C(=C2/C(=O)Nc3ccccc32)c2cc(F)ccc21
Classification: Criterion met
//
Compound: CN1C(=O)/C(=C2/C(=O)N(CCN3CCCC3)c3ccccc32)c2ccccc21.Cl
Classification: Criterion met
//
Compound: CN1C(=O)/C(=C2/C(=O)Nc3ccccc32)c2cc(Br)ccc21
Classification: Criterion not met
//
Compound: CN1C(=O)/C(=C2/C(=O)N(CCNC(=O)OC(C)(C)C)c3ccccc32)c2ccccc21
Classification: Criterion not met
//
Compound: CN1C(=O)/C(=C2/C(=O)N(C)c3ccccc32)c2ccccc21
Classification: Criterion not met
//
Compound: CN1C(=O)C2(CC=CCC23C(=O)Nc2ccccc23)c2ccccc21 (stereo unspecified)
Classification: Criterion not met
//
Compound: CN1C(=O)/C(=C2/C(=O)Nc3ccc(Br)cc32)c2ccccc21
Classification: Criterion met
//
Compound: O=C1Nc2ccccc2/C1=C1\C(=O)N(CCN2CCOCC2)c2ccccc21
Classification: Criterion met

====

# Protocol summary: Solubility of the compound in water incubated for 24 hrs by HPLC analysis
# Format: physicochemical

Molecule smiles: CN1C(=O)/C(=C2/C(=O)N(CCN3CCCC3)c3ccccc32)c2ccccc21.Cl
Units of measure: µg/mL
solubility at 24 h: 17300

Molecule smiles: CN1C(=O)/C(=C2/C(=O)N(CCCN)c3ccc(Br)cc32)c2ccccc21.Cl
Units of measure: µg/mL
solubility at 24 h: 2490

Molecule smiles: CN1C(=O)/C(=C2/C(=O)N(CCN)c3ccccc32)c2cc(Br)ccc21.Cl
Units of measure: µg/mL
solubility at 24 h: 3810

====

# Target or system: Replicase polyprotein 1ab (Severe acute respiratory syndrome coronavirus 2)
# Protocol summary: Inhibition of recombinant SARS-CoV-2 main protease expressed in Escherichia coli BL21 DE3 expression cells using MCA-AVLQSGFR-Lys(Dnp)-Lys-NH2 as substrate at 10 uM incubated for 10 to 15 mins followed by substrate addition by FRET assay relative to control
# Test parameters: time 10-15 min

Compound: O=C(O)CCCCCCCN1C(=O)/C(=C2/C(=O)Nc3ccccc32)c2ccccc21
inhibition (%): 73.8
--
Compound: CN1CCN(CCN2C(=O)/C(=C3/C(=O)Nc4ccccc43)c3ccccc32)CC1
inhibition (%): 91.3
--
Compound: O=C(O)CCCCCCCCCN1C(=O)/C(=C2/C(=O)Nc3ccccc32)c2ccccc21
inhibition (%): 71.2
--
Compound: COc1ccc2c(c1)/C(=C1\C(=O)Nc3ccccc31)C(=O)N2CCCCCCCC(=O)O
inhibition (%): 89.1
--
Compound: O=C(O)CCCCCCCCCN1C(=O)/C(=C2/C(=O)Nc3ccccc32)c2cc(Br)ccc21
inhibition (%): 76.8
--
Compound: O=C1Nc2ccccc2/C1=C1\C(=O)Nc2ccccc21 [ISOINDIGO]
inhibition (%): 85.3
--
Compound: CN1C(=O)/C(=C2/C(=O)Nc3ccccc32)c2cc([N+](=O)[O-])ccc21
inhibition (%): 32.8
--
Compound: O=C1Nc2ccccc2/C1=C1\C(=O)N(CCBr)c2ccccc21
inhibition (%): 97.4
--
Compound: COc1ccc2c(c1)/C(=C1\C(=O)Nc3ccccc31)C(=O)N2C
inhibition (%): 91.4
--
Compound: CN1C(=O)/C(=C2/C(=O)N(CCN)c3ccccc32)c2cc(Br)ccc21.Cl
inhibition (%): 85.8

====

# Protocol summary: Metabolic stability in mouse liver microsomes assessed as half life at 10 mg/ml preincubated for 5 mins followed by NADPH addition and measured upto 120 mins by HPLC analysis
# Type: ADME, Microsome
# Test parameters: time < 125 min

Molecule smiles: CN1C(=O)/C(=C2/C(=O)N(CCCN)c3ccc(Br)cc32)c2ccccc21.Cl
half-life: 8.25 h

====

# Protocol summary: Metabolic stability in mouse liver microsomes assessed as intrinsic clearance at 10 mg/ml preincubated for 5 mins followed by NADPH addition and measured upto 120 mins by HPLC analysis
# Type: ADME, Microsome
# Test parameters: time < 125 min, read-out: CLH

Molecule smiles: CN1C(=O)/C(=C2/C(=O)N(CCCN)c3ccc(Br)cc32)c2ccccc21.Cl
Units of measure: µL/min/mg
microsomal CLint: 1.4

====

# Protocol summary: Stability of compound in stimulated intestinal fluid assessed as parent compound remaining measured upto 24 hrs by HPLC analysis
# Format: ADME
# Test parameters: simulated intestinal fluid, read-out: Stability

Molecule smiles: CN1C(=O)/C(=C2/C(=O)N(CCN3CCCC3)c3ccccc32)c2ccccc21.Cl
remaining at 24 h (%): 85.3

Molecule smiles: CN1C(=O)/C(=C2/C(=O)N(CCCN)c3ccc(Br)cc32)c2ccccc21.Cl
remaining at 24 h (%): 73.6

Molecule smiles: CN1C(=O)/C(=C2/C(=O)N(CCN)c3ccccc32)c2cc(Br)ccc21.Cl
remaining at 24 h (%): 78

====

# Protocol summary: n-Octanol/water partition coefficient, logP of the compound incubated for 12 hrs by HPLC analysis
# Format: physicochemical
Measured property: logP at 12 h

Molecule smiles: CN1C(=O)/C(=C2/C(=O)N(CCN3CCCC3)c3ccccc32)c2ccccc21.Cl
Result: 0.7

Molecule smiles: CN1C(=O)/C(=C2/C(=O)N(CCN)c3ccccc32)c2cc(Br)ccc21.Cl
Result: 0.59

Molecule smiles: CN1C(=O)/C(=C2/C(=O)N(CCCN)c3ccc(Br)cc32)c2ccccc21.Cl
Result: 0.29

====

# Protocol summary: Metabolic stability in mouse liver microsomes assessed as parent compound remaining at 10 mg/ml measured after 120 mins by HPLC analysis
# Assay type: ADME, Microsome
# Test parameters: read-out: Stability

Molecule smiles: CN1C(=O)/C(=C2/C(=O)N(CCCN)c3ccc(Br)cc32)c2ccccc21.Cl
remaining at 2 h, %: 84

====

# Protocol summary: Stability of compound in stimulated gastric fluid assessed as parent compound remaining measured upto 24 hrs by HPLC analysis
# Type: ADME
# Test parameters: simulated gastric fluid, read-out: Stability
remaining at 24 h values for the compounds below.
Measured property: remaining at 24 h (%)

Molecule smiles: CN1C(=O)/C(=C2/C(=O)N(CCN3CCCC3)c3ccccc32)c2ccccc21.Cl
Measured property: remaining at 24 h
Numeric value: 95.2

Molecule smiles: CN1C(=O)/C(=C2/C(=O)N(CCCN)c3ccc(Br)cc32)c2ccccc21.Cl
Measured property: remaining at 24 h
Numeric value: 95.3

Molecule smiles: CN1C(=O)/C(=C2/C(=O)N(CCN)c3ccccc32)c2cc(Br)ccc21.Cl
Measured property: remaining at 24 h
Numeric value: 95
